# tgt: recombinant soluble homotrimeric HA of A/Indonesia/5/05 (H5N1) (Influenza A virus A/Indonesia/5/2005(H5N1))
# measurement_description: trimeric HA microarray, transfection supernatant set 4
# protocol_conditions: remark: other sources report otherwise
measurement_kind: Trimeric HA Binding: RLU (RLU)
Give bare numbers, in RLU.

Query: # lookup: Trimeric HA Binding: RLU of TCN-535 (5246_P19) (antibody, V domains shown) VH: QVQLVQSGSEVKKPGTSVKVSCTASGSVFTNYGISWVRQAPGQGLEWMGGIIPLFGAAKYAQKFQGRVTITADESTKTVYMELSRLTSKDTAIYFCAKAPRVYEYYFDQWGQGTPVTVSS VL: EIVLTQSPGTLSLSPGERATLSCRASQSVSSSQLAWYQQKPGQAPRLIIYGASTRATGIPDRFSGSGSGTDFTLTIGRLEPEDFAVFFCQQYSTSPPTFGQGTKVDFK
Result: 18200
